- Test system: TNFα
- testDetails: TNFα inhibition, LPS-induced PBMCs or CD14+ monocytes, Meso Scale assay
- Format: cell-based
- measurementConditions: tested at 10 μM, LPS 100 ng/mL 18-24 h; read-out: % Inhibition compared to DMSO, TNFα
Measured inhibition at 10 µM, listed per entry for reference.

Determine from records and report inhibition at 10 µM for O=C1CCC(N2Cc3c(cc(F)cc3C(F)F)C2=O)C(=O)N1 (centres unmarked) [Compound 17]
25 to 50%

# return recorded inhibition at 10 µM for input O=C1CCC(N2Cc3c(cc(F)c(F)c3C3CCCC3)C2=O)C(=O)N1 (centres unmarked) [Compound 16]
10 to 25%

----------
- Test system: TNFα
- testDetails: TNFα inhibition, LPS-induced PBMCs or CD14+ monocytes, Meso Scale assay
- Format: cell-based
- measurementConditions: tested at 10 μM, LPS 100 ng/mL 18-24 h; read-out: % Inhibition compared to DMSO, TNFα
readoutLabel: inhibition at 10 µM

molecule | systemUnderTest | inhibition at 10 µM
CC1(C)CCC(c2cc(F)cc3c2CN(C2CCC(=O)NC2=O)C3=O)CC1 (stereo not drawn) [Compound 7] | TNFα | 10 to 25%

Return reported inhibition at 10 µM. Input molecule: CC1CC(=O)NC(=O)C1N1Cc2c(cc(F)cc2C2CCCC2)C1=O (stereo not drawn) [Compound 6]
> 50%

Give reported inhibition at 10 µM value for O=C1CCC(N2Cc3c(cc(F)cc3C3CCCCCC3)C2=O)C(=O)N1 (stereo not drawn) [Compound 15]
< 10%

----------
Listing of recorded Dmax at 1 µM by entry.
- systemUnderTest: PDE6D (Homo sapiens, UniProt O43924+Q96SW2)
- Construct: endogenous in cells; host or cells: MV-4-11
- Sequence (O43924 whole entry): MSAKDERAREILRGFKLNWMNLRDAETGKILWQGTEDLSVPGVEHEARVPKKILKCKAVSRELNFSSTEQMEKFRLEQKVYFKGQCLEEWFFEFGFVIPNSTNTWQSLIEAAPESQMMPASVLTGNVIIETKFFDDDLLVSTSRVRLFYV
- Sequence (Q96SW2 whole entry): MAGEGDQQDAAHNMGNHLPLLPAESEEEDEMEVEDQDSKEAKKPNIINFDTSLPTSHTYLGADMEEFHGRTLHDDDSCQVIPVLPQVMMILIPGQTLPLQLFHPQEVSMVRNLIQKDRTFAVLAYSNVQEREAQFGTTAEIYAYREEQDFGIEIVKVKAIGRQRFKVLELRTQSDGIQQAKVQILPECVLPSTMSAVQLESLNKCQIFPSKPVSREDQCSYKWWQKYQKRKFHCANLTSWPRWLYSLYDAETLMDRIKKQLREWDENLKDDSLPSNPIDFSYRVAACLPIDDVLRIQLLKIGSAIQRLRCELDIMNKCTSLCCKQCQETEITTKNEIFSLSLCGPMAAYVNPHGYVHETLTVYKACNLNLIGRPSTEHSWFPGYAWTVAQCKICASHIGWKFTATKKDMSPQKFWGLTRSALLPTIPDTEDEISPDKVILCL
- Sequence (Q16531 whole entry partner): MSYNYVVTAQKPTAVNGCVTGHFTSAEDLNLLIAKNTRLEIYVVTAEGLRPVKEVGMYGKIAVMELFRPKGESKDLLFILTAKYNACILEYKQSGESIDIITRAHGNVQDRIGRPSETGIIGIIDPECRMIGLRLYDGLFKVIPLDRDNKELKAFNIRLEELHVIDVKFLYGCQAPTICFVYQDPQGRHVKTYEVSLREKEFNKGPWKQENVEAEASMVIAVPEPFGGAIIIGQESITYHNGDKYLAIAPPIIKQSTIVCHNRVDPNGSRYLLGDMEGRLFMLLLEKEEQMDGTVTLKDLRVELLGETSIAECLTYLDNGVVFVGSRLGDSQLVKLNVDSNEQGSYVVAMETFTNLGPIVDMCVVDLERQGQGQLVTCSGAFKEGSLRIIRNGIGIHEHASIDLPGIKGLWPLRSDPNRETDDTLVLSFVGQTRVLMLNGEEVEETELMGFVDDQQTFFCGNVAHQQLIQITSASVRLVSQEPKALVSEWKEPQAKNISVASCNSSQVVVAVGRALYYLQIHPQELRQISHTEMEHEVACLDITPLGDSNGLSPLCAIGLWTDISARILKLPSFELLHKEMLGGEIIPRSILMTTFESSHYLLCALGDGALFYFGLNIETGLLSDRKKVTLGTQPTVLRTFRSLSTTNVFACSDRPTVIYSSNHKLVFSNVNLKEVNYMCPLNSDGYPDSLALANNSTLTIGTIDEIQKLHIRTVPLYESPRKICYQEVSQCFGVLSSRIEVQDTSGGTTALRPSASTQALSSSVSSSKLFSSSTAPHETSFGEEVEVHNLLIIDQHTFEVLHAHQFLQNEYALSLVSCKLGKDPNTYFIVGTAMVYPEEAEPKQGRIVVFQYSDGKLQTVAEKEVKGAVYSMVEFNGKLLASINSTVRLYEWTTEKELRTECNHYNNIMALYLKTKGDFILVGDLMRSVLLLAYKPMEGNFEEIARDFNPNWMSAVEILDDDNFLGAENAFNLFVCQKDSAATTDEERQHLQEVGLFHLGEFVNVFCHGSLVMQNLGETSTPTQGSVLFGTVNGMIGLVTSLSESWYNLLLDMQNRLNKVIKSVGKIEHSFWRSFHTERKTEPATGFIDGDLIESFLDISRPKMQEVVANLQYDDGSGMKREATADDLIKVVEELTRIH
- testDetails: Western blot, degradation of cellular PDE6D in MV-4-11 cells
- Assay type: cell-based
- measurementConditions: MV4-11; tested at 1 μM, MV-4-11 cells, 6-8 hours; read-out: % Degradation compared to DMSO, PDE6D

compound | Dmax at 1 µM
CC1CC(=O)NC(=O)C1N1Cc2c(cc(F)cc2C2CCCC2)C1=O (stereo not drawn) | ≥ 75%

Proceeding to the next compound to report its Dmax at 1 µM.
Query Dmax at 1 µM for O=C1CCC(N2Cc3c(C4CCCC4)ccc(F)c3C2=O)C(=O)N1 (stereo not drawn)
< 25%

----------
- System: IL-1β
- testDetails: IL-1β inhibition, LPS-induced PBMCs or CD14+ monocytes, Meso Scale assay
- Type: cell-based
- measurementConditions: tested at 1 μM, LPS 100 ng/mL 18-24 h; read-out: % Inhibition compared to DMSO, IL-1β
Reported values of inhibition at 1 µM for individual entries

# count of solved cases: 8
molecule | result
O=C1CCC(N2Cc3c(cc(F)cc3C3CCCC3)C2=O)C(=O)N1 (stereo not shown) | 10 to 25%
O=C1CCC(N2Cc3c(cc(F)cc3C(F)F)C2=O)C(=O)N1 (stereo not shown) | < 10%
C[C@H](c1cccc2c1CN(C1CCC(=O)NC1=O)C2=O)C(F)(F)F (stereo partly shown) | < 10%
O=C1CCC(N2Cc3c(cc(F)cc3C3CC4CCC3C4)C2=O)C(=O)N1 (stereo not shown) | < 10%
COc1cc2c(c(C3CCCC3)c1)CN(C1CCC(=O)NC1=O)C2=O (stereo not shown) | < 10%
O=C1CCC(N2Cc3c(cc(F)c(F)c3C3CCCC3)C2=O)C(=O)N1 (stereo not shown) | < 10%
CC1(C)CC=C(c2cc(F)cc3c2CN(C2CCC(=O)NC2=O)C3=O)CC1 (stereo not shown) | < 10%
O=C1CCC(N2Cc3c(cc(C(F)(F)F)cc3C3CCCC3)C2=O)C(=O)N1 (stereo not shown) | < 10%

State inhibition at 1 µM on IL-1β. Entry: CCC(C)c1cc(F)cc2c1CN(C1CCC(=O)NC1=O)C2=O (stereo not shown)
< 10%

Look up and report inhibition at 1 µM, with IL-1β as system, for O=C1CCC(N2Cc3c(cccc3C3CCCC3)C2=O)C(=O)N1 (stereo not shown)
< 10%

State, for IL-1β, measured inhibition at 1 µM of the molecule listed here: C[C@@H](c1cc(F)cc2c1CN(C1CCC(=O)NC1=O)C2=O)C(F)(F)F (stereo partly shown)
< 10%

----------
- Test system: IL-6
- testDetails: IL-6 inhibition, LPS-induced PBMCs or CD14+ monocytes, Meso Scale assay
- Assay type: cell-based
- measurementConditions: tested at 1 μM, LPS 100 ng/mL 18-24 h; read-out: % Inhibition compared to DMSO, IL-6
- Procedure: Either frozen primary blood mononuclear cells (PBMCs) or frozen CD14+ mobilized peripheral blood monocytes were purchased from AllCells (PB003F, Normal Peripheral Blood MNC (Alameda, Calif.)). Cells were quick thawed, washed 1-time with RPMI-1640 (10% FBS/1% Pen-Strep) and plated in 96 well plates at 200,000 cells per well. […] The supernatant was analyzed for IL-1β, IL-6, and TNFα, using Meso Scale assay according to manufacturer's protocol. […]
Property: inhibition at 1 µM; scope: individual compounds

Solved entries (count: 10):
compound | inhibition at 1 µM
CC1(C)CCCC1c1cc(F)cc2c1CN(C1CCC(=O)NC1=O)C2=O (centres unmarked) [Compound 26] | < 10%
O=C1CCC(N2Cc3c(C4CCCC4)ccc(F)c3C2=O)C(=O)N1 (centres unmarked) [Compound 27] | 10 to 25%
O=C1CCC(N2Cc3c(cc(F)cc3C3CCOCC3)C2=O)C(=O)N1 (centres unmarked) [Compound 32] | < 10%
CCC1(N2Cc3c(cc(F)cc3C3CCCC3)C2=O)CCC(=O)NC1=O (centres unmarked) [Compound 18] | < 10%
O=C1CCC(N2Cc3c(cc(F)cc3C3=CCC(F)(F)CC3)C2=O)C(=O)N1 (centres unmarked) [Compound 9] | 10 to 25%
O=C1CCC(N2Cc3c(cc(F)cc3C3CCCCCC3)C2=O)C(=O)N1 (centres unmarked) [Compound 15] | < 10%
O=C1CCC(N2Cc3c(cc(F)cc3C3CCCCC3)C2=O)C(=O)N1 (centres unmarked) [Compound 3] | < 10%
O=C1CCC(N2Cc3c(cc(F)cc3C(F)F)C2=O)C(=O)N1 (centres unmarked) [Compound 17] | < 10%
O=C1CCC(N2Cc3c(cc(C(F)(F)F)cc3C3CCCC3)C2=O)C(=O)N1 (centres unmarked) [Compound 29] | 10 to 25%
Cc1c(F)cc2c(c1C1CCCC1)CN(C1CCC(=O)NC1=O)C2=O (centres unmarked) [Compound 21] | < 10%

Now take the following compound into account.
Provide inhibition at 1 µM, recorded with IL-6, of CC(C)c1cc(F)cc2c1CN(C1CCC(=O)NC1=O)C2=O (centres unmarked) [Compound 34]
< 10%

----------
- systemUnderTest: PDE6D (Homo sapiens, UniProt O43924+Q96SW2)
- Construct: endogenous in cells; host or cells: MV-4-11
- testDetails: Western blot, degradation of cellular PDE6D in MV-4-11 cells
- Format: cell-based
- measurementConditions: MV4-11; tested at 1 μM, MV-4-11 cells, 6-8 hours; read-out: % Degradation compared to DMSO, PDE6D
readoutLabel: Dmax at 1 µM

Consider the reported Dmax at 1 µM for these molecules:
molecule | Dmax at 1 µM
O=C1CCC(N2Cc3c(ccc(F)c3C3CCCC3)C2=O)C(=O)N1 (centres unmarked) | 25 to 50%
O=C1CCC(N2C(=O)c3cccc(C4CCCC4)c3C2=O)C(=O)N1 (centres unmarked) | 50 to 75%
C[C@@H](c1cc(F)cc2c1CN(C1CCC(=O)NC1=O)C2=O)C(F)(F)F (some centres unmarked) | ≥ 75%

Report Dmax at 1 µM for CCC(C)c1cc(F)cc2c1CN(C1CCC(=O)NC1=O)C2=O (centres unmarked)
≥ 75%

For the molecule O=C1CCC(N2Cc3c(cc(C(F)(F)F)cc3C3CCCC3)C2=O)C(=O)N1 (centres unmarked) , give its measured Dmax at 1 µM value.
< 25%

Give the reported Dmax at 1 µM for this molecule. O=C1CCC(N2Cc3c(cc(F)c(F)c3C3CCCC3)C2=O)C(=O)N1 (centres unmarked)
≥ 75%

----------
- System: TNFα
- testDetails: TNFα inhibition, LPS-induced PBMCs or CD14+ monocytes, Meso Scale assay
- Format: cell-based
- measurementConditions: tested at 10 μM, LPS 100 ng/mL 18-24 h; read-out: % Inhibition compared to DMSO, TNFα
readoutLabel: inhibition at 10 µM

See these solved cases before continuing.
compound | result
O=C1CCC(N2Cc3c(cc(F)cc3C3CCCC3)C2=O)C(=O)N1 (stereo not drawn) | 25 to 50%
Cc1c(F)cc2c(c1C1CCCC1)CN(C1CCC(=O)NC1=O)C2=O (stereo not drawn) | 25 to 50%
CCC1(N2Cc3c(cc(F)cc3C3CCCC3)C2=O)CCC(=O)NC1=O (stereo not drawn) | 25 to 50%
O=C1CCC(N2Cc3c(cccc3C3CC3)C2=O)C(=O)N1 (stereo not drawn) | > 50%
CC1(C)CCCC1c1cc(F)cc2c1CN(C1CCC(=O)NC1=O)C2=O (stereo not drawn) | 10 to 25%

Read the next record carefully.
Report its inhibition at 10 µM with TNFα as the test system: COc1cc2c(c(C3CCCC3)c1)CN(C1CCC(=O)NC1=O)C2=O (stereo not drawn)
25 to 50%
